# run_description: endothelial E-selectin upregulation by compounds – imaging, HUVEC, cherry-picked samples, dose response (AID 977605);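 note: signal is the share of imaged cells scored positive for E-selectin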
# assay_context: HUVEC E-selectin immunostaining, at 19.5 µM (top of the series), percent of TNF-alpha response over vehicle
assay_endpoint: activation (%)
Express the result in % but write the number alone.

Query: Need activation of "C[C@@H]1CN([C@H](C)CO)C(=O)c2cc(NC(=O)CCN3CCOCC3)ccc2O[C@H]1CN(C)C(=O)Nc1ccc(C(F)(F)F)cc1" , thanks.
Result: -0.038

Query: Which activation is reported for this compound? "CCOc1ccccc1NC(=O)N1CCC(NC(=O)C2CCCCC2)CC1"
Result: -0.152

Query: // lookup activation for "C[C@@H]1CN([C@H](C)CO)C(=O)c2cc(NC(=O)Cn3cnnn3)ccc2O[C@@H]1CN(C)Cc1ccc(Oc2ccccc2)cc1"
Result: -0.117

Query: Look at this compound and give its reported activation. "Cc1cccc(NS(=O)(=O)c2ccc(S(=O)(=O)N3CCCC3)cc2)c1"
Result: 1.83

Query: Look up activation for this compound: "C[C@@H]1CN([C@H](C)CO)C(=O)c2cc(NS(C)(=O)=O)ccc2O[C@@H]1CN(C)Cc1ccc(C(F)(F)F)cc1"
Result: -0.068

Query: Would you kindly share the measured activation for "CCc1nc(=O)c(-c2ccccc2)c(C)n1-c1ccccc1" ?
Result: -0.02

Query: Given the compound "COc1ccc(NC(=O)c2cc(S(=O)(=O)N3CCCCC3)c[nH]2)cc1" , what is its reported activation?
Result: 0.335

Query: Need activation, item "C[C@H](CO)N1C[C@H](C)[C@H](CN(C)Cc2ccc(Oc3ccccc3)cc2)Oc2c(NC(=O)C3CCOCC3)cccc2C1=O"
Result: 6.04

Query: Recorded activation of "C[C@@H]1CN([C@@H](C)CO)C(=O)Cc2cc(NC(=O)Nc3ccc(F)cc3)ccc2O[C@H]1CN(C)S(=O)(=O)c1ccccc1" , please.
Result: -0.074

Query: Request the reported activation associated with "CCN(Cc1ccccc1)S(=O)(=O)c1ccc(OC)c2ncccc12"
Result: -0.178

Query: What does the record list as activation for "Cc1ccccc1CNc1ncnc2cc(Cl)ccc12" ?
Result: 0.221

Query: Record request: activation value, item "C[C@H](CO)N1C[C@H](C)[C@H](CN(C)S(=O)(=O)c2ccccc2)Oc2c(NC(=O)Nc3ccccc3)cccc2C1=O"
Result: -0.014

Query: Please give the measured activation for this compound: "COc1ccc(S(=O)(=O)Nc2cccc3c2O[C@H](CN(C)C(=O)Nc2cccc4ccccc24)[C@@H](C)CN([C@H](C)CO)C3=O)cc1"
Result: -0.185

Query: Can you share its activation? I mean this compound: "COCC(=O)N(C)C[C@H]1Oc2cc(-c3ccc(F)cc3)ccc2S(=O)(=O)N([C@@H](C)CO)C[C@H]1C"
Result: -0.091

Query: Please give the measured activation for this compound: "C[C@@H]1CN([C@H](C)CO)C(=O)c2cc(NS(=O)(=O)c3ccc(F)cc3)ccc2O[C@@H](C)CCCCO[C@@H]1CN(C)S(C)(=O)=O"
Result: 3.44

Query: For the compound "CC(C)NC(=O)N(C)C[C@@H]1Oc2c(NC(=O)c3ccc(-c4nccs4)cc3)cccc2C(=O)N([C@@H](C)CO)C[C@H]1C" , what activation is on record?
Result: 1.61

Query: Fill in: activation of "C[C@H]1CN([C@@H](C)CO)C(=O)c2cccc(NC(=O)C3CCOCC3)c2O[C@H]1CN(C)Cc1ccc(Oc2ccccc2)cc1" is ___
Result: 0.01
